molecular target: PDE7(101-483) (Homo sapiens, UniProt Q13946); construct: this catalytic fragment (101-482) fragment was co-expressed; crude lysate supernatant; assay: PDE assay for IC50 measurements (SPA, cell lysate enzyme)
Sequence (Q13946 101-482): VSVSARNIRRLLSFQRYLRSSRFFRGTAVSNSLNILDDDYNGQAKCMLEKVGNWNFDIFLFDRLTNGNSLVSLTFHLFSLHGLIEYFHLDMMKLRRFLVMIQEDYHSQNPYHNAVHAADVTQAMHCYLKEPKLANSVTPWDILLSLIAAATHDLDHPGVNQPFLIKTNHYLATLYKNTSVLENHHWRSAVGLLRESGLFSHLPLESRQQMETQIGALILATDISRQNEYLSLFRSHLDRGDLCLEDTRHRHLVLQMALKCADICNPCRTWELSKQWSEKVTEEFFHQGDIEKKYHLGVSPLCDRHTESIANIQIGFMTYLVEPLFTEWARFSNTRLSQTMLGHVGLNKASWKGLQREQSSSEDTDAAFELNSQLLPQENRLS
MEASURED PARAMETER: IC50

Tell me its IC50 given CC(C)Cn1c(=O)n(C)c(=O)c2[nH]cnc21 [IBMX, 3 isobutyl-1-methyl xanthine] as the entry.
13 to 14 µM

----------
molecular target: PDE7(101-450) (Homo sapiens); construct: crude lysate supernatant; assay: PDE assay for IC50 measurements (SPA, cell lysate enzyme); conditions: PDE7(101-450)
MEASURED PARAMETER: IC50

Tell me its IC50 given `CC(C)Cn1c(=O)n(C)c(=O)c2[nH]cnc21` as the entry.
13 to 14 µM

Data origin, for the record: patent US20030036184A1
